Reported MIC values follow for various compounds
# System: Staphylococcus aureus
# Protocol Summary: Antimicrobial activity against methicillin resistant Staphylococcus aureus clinical isolate MRS152 assessed as reduction in bacterial growth incubated for 24 hrs by two-fold broth dilution method
# Type: functional
Assay Readout: MIC

>  <Smiles Record>
COc1cccc(-c2ccc(O)c(N(Cc3cc4ccccc4s3)C(=O)CCC(F)(F)F)c2)c1

>  <Assay Readout>
MIC

>  <Observed>
> 16 µg/mL

$$$$
>  <Smiles Record>
O=C(CCC(F)(F)F)N(Cc1cc2ccccc2s1)c1cc(-c2cccc(C(F)(F)F)c2)ccc1O

>  <Assay Readout>
MIC

>  <Observed>
> 16 µg/mL

$$$$
>  <Smiles Record>
COc1ccc(-c2ccc(O)c(N(Cc3cc4ccccc4s3)C(=O)CCC(F)(F)F)c2)cc1

>  <Assay Readout>
MIC

>  <Observed>
> 16 µg/mL

$$$$
